# study.system: MAP3K14 (human)
# protocol.details: radiometric filter-binding kinase assay, Kinase HotSpot
# measurement.parameters: compound 0.5 µM; ATP 10 µM
measured.property: residual activity (%)
Answers are plain numbers, in %.

Worked examples, 2 compounds total:
Cc1ccc(NC(=O)c2ccc(CN3CCN(C)CC3)cc2)cc1Nc1nc(-c2cccnc2)cs1 ... 91
CC(C)[C@H](CO)Nc1nc(Nc2cccc(Cl)c2)c2ncn(C(C)C)c2n1 ... 112

Now let's try a different one.
For the compound Nc1n[nH]c2nnc(-c3c(-c4ccccc4)nn4ccccc34)cc12 , report residual activity.
102

###

# study.system: JAK2 JH1 JH2 (human) (UniProt O60674)
# Sequence (O60674 whole entry, looked up): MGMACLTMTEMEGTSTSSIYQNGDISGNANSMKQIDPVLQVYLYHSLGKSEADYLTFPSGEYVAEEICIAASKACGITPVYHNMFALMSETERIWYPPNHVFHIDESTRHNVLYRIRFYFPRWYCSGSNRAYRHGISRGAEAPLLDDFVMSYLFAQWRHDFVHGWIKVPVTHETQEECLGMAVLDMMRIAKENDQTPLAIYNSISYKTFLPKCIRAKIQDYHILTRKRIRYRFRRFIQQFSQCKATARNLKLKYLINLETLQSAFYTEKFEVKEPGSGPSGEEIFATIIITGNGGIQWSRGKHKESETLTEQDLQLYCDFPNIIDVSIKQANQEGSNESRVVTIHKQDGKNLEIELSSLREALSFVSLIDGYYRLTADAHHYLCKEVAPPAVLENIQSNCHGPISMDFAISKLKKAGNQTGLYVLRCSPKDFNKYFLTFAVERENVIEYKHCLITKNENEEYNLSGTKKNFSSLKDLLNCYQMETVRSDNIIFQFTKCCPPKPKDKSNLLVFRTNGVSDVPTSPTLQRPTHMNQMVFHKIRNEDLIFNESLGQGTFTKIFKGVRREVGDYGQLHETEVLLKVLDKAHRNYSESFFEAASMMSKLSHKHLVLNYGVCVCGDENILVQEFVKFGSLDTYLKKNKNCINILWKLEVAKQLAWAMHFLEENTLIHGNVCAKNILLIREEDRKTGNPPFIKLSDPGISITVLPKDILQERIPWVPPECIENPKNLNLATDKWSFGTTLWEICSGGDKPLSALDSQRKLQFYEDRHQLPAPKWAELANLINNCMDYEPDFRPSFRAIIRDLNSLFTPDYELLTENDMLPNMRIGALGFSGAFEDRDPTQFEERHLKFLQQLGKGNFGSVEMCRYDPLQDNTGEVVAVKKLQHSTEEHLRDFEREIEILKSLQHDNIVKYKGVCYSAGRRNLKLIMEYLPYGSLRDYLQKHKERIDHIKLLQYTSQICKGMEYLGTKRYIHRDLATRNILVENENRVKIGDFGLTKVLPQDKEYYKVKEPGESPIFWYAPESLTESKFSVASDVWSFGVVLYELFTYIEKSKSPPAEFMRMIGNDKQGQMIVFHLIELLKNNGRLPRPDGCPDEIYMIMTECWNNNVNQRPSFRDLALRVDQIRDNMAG
# protocol.details: radiometric filter-binding kinase assay, Kinase HotSpot
# measurement.parameters: compound 0.5 µM; ATP 10 µM
For each entry below, report its residual activity value.
Give bare numbers, in %.

CC(C)n1cnc2c(Nc3cccc(Cl)c3)nc(NCCO)nc21 ... 101
COc1ccc(-c2cnc3c(-c4ccsc4)cnn3c2)cc1 ... 98.4

Output reported residual activity of the molecule CCN1/C(=C/C(C)=O)Sc2ccc(OC)cc21 on JAK2 JH1 JH2 (human) (UniProt O60674).
97.1
